// provenance: patent US20190262327A1

Target: T1, biotinylated synthetic human Amyloid beta 1-42 peptide (human, UniProt P05067 672-713, biotinylated (N-terminal biotin in Example 4))
T1 construct: domain: Amyloid beta 1-42 peptide; Numbers 1-42 count on the Amyloid beta peptide, not on APP; also called biotinylated human Amyloid beta 1-42; N-terminal biotin Abeta 1-42
T1 sequence (P05067 672-713 limits assumed): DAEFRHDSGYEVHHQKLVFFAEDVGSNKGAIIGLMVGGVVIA
Experiment: SPR (ProteOn); biotinylated peptide on streptavidin chip, scFv in solution
Protocol: These experiments were performed essentially as described by Karlsson et al. (Karlsson et al., 1991). The chip surface was regenerated between cycles by a single 60 second injection of 10 mM Glycine pH 2.0 to remove scFv bound to the peptide. Each scFv at 100-200 nM was sequentially passed over the peptide surface for a sufficient amount of time to observe sensorgrams that could be fitted to an appropriate binding model with confidence. […]
Kindly state kon for each of the entries shown.
Report the value in M⁻¹ s⁻¹ with no unit label.

Value lookup for kon; key = Abet0319 scFv (scFv, V domains shown, not shown: small tags and cut ends, Purified scFv expressed in E. coli) VH: EVQLLESGGGLVQPGGSLRLSCAASVSVYNKDTMWWVRQAPGKGLEWVSVIGSSGGTTVYADSVKGRFTISRDNSKNTLYLQMNSLRAEDTAVYYCAREWMDHSRPYYYYGMDVWGQGTLVTVSS VL: SYELTQPPSVSVSPGQTASITCSGHNIMDKWVSWYQQKPGRSPALVIYRDDKRPSGIPERFSASNSGHTATLTISGTQATDEADYYCSSQDTVTRVFGGGTKLTVL 329000

Value lookup for kon; key = Abet0342 scFv (scFv, V domains shown, not shown: small tags and cut ends, Purified scFv expressed in E. coli) VH: EVQLLESGGGLVQPGGSLRLSCAASGFDFRRSVMWWVRQAPGKGLEWVSVIGAQTQNKAYADSVKGRFTISRDNSKNTLYLQMNSLRAEDTAVYYCAREWMDHSRPYYYYGMDVWGQGTLVTVSS VL: SYELTQPPSVSVSPGQTASITCSGHNLEDKFASWYQQKPGQSPVLVIYRDDKRPSGIPERFSASNSGDTATLTISGTQAMDEADYYCQAQDSTTRVFGGGTKLTVL 136000
